Tested on: HSSY-II tumor spheroid viability
METHOD_NOTES: Anticancer human tumor HSSY-II cell line growth inhibition;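 also: spheroids exposed to compounds for seven days before reading; percent of DMSO vehicle control viability so 100% = untreated level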
DETAILS: second compound 0.003 µM; first compound 3 µM; hits give low values; spheroids with HUVEC and MSC
ASSAY_ENDPOINT: viability, T/C (%)
# output: bare number, implied unit %

[[record]]
compound = "Cc1sc2c(c1C)C(c1ccc(Cl)cc1)=NC(CC(=O)Nc1ccc(O)cc1)c1nnc(C)n1-2 (stereo not given) + COc1cc2c(cc1O)CCNC21CSC2c3c(OC(C)=O)c(C)c4c(c3C(COC1=O)N1C(O)C3Cc5cc(C)c(OC)c(O)c5C(C21)N3C)OCO4"
result_number = 0.27


Qu. For the compound CNCc1ccc(-c2cc(-c3nc(-c4ccc(S(=O)(=O)C(C)C)cc4)cnc3N)on2)cc1 + COc1cc2c(cc1O)CCNC21CSC2c3c(OC(C)=O)c(C)c4c(c3C(COC1=O)N1C(O)C3Cc5cc(C)c(OC)c(O)c5C(C21)N3C)OCO4 , what viability, T/C is on record?
Ans. 0.25

Qu. Given the entry Cc1sc2c(c1C)C(c1ccc(Cl)cc1)=NC(CC(=O)Nc1ccc(O)cc1)c1nnc(C)n1-2 (stereo not given) + CC[C@@]1(O)C(=O)OCc2c1cc1n(c2=O)Cc2cc3c(CN(C)C)c(O)ccc3nc2-1 , report its measured viability, T/C.
Ans. 7.01

Qu. Would you kindly share the measured viability, T/C for CNCc1ccc(-c2cc(-c3nc(-c4ccc(S(=O)(=O)C(C)C)cc4)cnc3N)on2)cc1 + CC[C@@]1(O)C(=O)OCc2c1cc1n(c2=O)Cc2cc3c(CN(C)C)c(O)ccc3nc2-1 ?
Ans. 0.44

Qu. Using the record for O=C(c1cc(Cc2n[nH]c(=O)c3ccccc23)ccc1F)N1CCN(C(=O)C2CC2)CC1 + CC[C@@]1(O)C(=O)OCc2c1cc1n(c2=O)Cc2cc3c(CN(C)C)c(O)ccc3nc2-1 , report its viability, T/C.
Ans. 18.8
